assay_procedure: Inhibition of HIV-1 RT-RNase H activity expressed in Escherichia coli JM109 using DNA 3'-end directed cleavage measuring HTS-2 as substrate by fluorescence-based assay
Parameters: species or system Human immunodeficiency virus 1
A collection of molecules and their measured IC50

                           molecular_string   result
0  NS(=O)(=O)c1ccc(-c2ccc(Cn3cc(O)c(=O)c(C(=O)O)c3)cc2)cc1   1.5 µM
1         O=C(O)c1cn(Cc2ccc(F)cc2)cc(O)c1=O  > 25 µM
2  CS(=O)(=O)c1ccc(Cn2cc(O)c(=O)c(C(=O)O)c2)cc1  > 25 µM
3        O=C(O)c1cn(Cc2ccc(Br)cc2)cc(O)c1=O  > 25 µM
4                    O=C(O)c1c[nH]cc(O)c1=O  > 25 µM

Let's switch to this molecule now.
Incoming: Entry under review: `O=C(O)c1cn(Cc2ccc(Cl)cc2)cc(O)c1=O` . Reported IC50?
Outgoing: > 25 µM

----------
Test system: Human immunodeficiency virus 1
assay_procedure: Inhibition of HIV-1 RT-RNase H domain expressed in Escherichia coli JM109 at 30 uM using HTS-1 as substrate preincubated with substrate for 10 mins followed by compound/MgCl2 addition incubated for 10 mins by fluorescence-based assay
Decision: inhibition >= 20% yields 1, all other cases yield -1.

In [3]: df
Out[3]:
                           molecular_string  classification
0  NS(=O)(=O)c1ccc(-c2ccc(Cn3cc(O)c(=O)c(C(=O)O)c3)cc2)cc1              -1
1   O=C(O)c1cn(CC2(c3ccccc3)CCCC2)cc(O)c1=O              -1
2  O=C(O)c1cn(Cc2ccc(-c3cnc4ccccc4c3)cc2)cc(O)c1=O               1
3  O=C(O)c1cn(Cc2ccc(-c3ccccc3)cc2)cc(O)c1=O               1
4      O=C(O)c1cn(Cc2cccc3ccccc23)cc(O)c1=O               1

Incoming: Hi, just wondering whether `COc1ccc(Cn2cc(O)c(=O)c(C(=O)O)c2)cc1` shows inhibition of 20% or higher.
Outgoing: 1

----------
A collection of molecules and their measured inhibition
System: Human immunodeficiency virus 1
assay_procedure: Inhibition of HIV-1 RT-RNase H domain expressed in Escherichia coli JM109 at 30 uM using HTS-1 as substrate preincubated with compound and MgCl2 for 10 mins followed by substrate addition incubated for 10 mins by fluorescence-based assay
Please state the figure in %; there is no need to write the unit.

Sample answers from the record:
>>> df
                           molecular_string  experimental_readout  result
0  O=C(O)c1cn(Cc2ccc(-c3cnc4ccccc4c3)cc2)cc(O)c1=O            inhibition      68
1      O=C(O)c1cn(Cc2cccc3ccccc23)cc(O)c1=O            inhibition      51
2   O=C(O)c1cn(CC2(c3ccccc3)CCCC2)cc(O)c1=O            inhibition      84
3  NS(=O)(=O)c1ccc(-c2ccc(Cn3cc(O)c(=O)c(C(=O)O)c3)cc2)cc1            inhibition      79

Incoming: Entry under review: `COc1ccc(Cn2cc(O)c(=O)c(C(=O)O)c2)cc1` . Reported inhibition?
Outgoing: 52

Incoming: Entry under review: `O=C(O)c1cn(Cc2ccc(-c3ccccc3)cc2)cc(O)c1=O` . Reported inhibition?
Outgoing: 36

----------
tested_target: Human immunodeficiency virus type 1 integrase (Human immunodeficiency virus 1, UniProt Q7ZJM1, C280S/F185K)
Sequence (Q7ZJM1 entry or part of it C280S/F185K): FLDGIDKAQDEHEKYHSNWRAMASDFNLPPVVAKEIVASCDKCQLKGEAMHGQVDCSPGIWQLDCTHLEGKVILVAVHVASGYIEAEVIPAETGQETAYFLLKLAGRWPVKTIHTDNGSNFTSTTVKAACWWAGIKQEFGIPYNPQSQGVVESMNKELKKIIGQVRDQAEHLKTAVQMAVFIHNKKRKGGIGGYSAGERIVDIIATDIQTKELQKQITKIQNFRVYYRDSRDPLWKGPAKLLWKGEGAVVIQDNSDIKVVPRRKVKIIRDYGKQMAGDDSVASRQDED
assay_procedure: Inhibition of full-length HIV-1 integrase F185K/C280S double mutant strand transfer activity expressed in Escherichia coli BL21(DE3) using oligo DNA as substrate preincubated for 10 mins followed by substrate addition incubated for 30 mins by plate reader analysis
A collection of compounds and their measured log10 IC50
Values reflect log10 of reported IC50 (µM).

In [3]: df
Out[3]:
                                   compound  result
0  O=C(O)c1cn(Cc2ccc(-c3ccccc3)cc2)cc(O)c1=O    1.34

Incoming: Entry under review: `O=C(O)c1cn(Cc2ccc(F)cc2)cc(O)c1=O` . Reported log10 IC50?
Outgoing: 1.54

----------
tested_target: Human immunodeficiency virus type 1 reverse transcriptase (Human immunodeficiency virus 1)
assay_procedure: Inhibition of HIV-1 RT RNA-dependent DNA polymerase activity expressed in Escherichia coli JM109 using [3H]TTP/ poly(rA)-oligo(dT)16 as substrate incubated for 20 mins by liquid scintillation spectrometric analysis
experimental_readout: IC50

In [3]: df
Out[3]:
                               molecule  experimental_readout   result
0  COc1ccc(Cn2cc(O)c(=O)c(C(=O)O)c2)cc1                  IC50  > 25 µM

Incoming: Entry under review: CC(c1cccc2ccccc12)n1cc(O)c(=O)c(C(=O)O)c1 (centres undefined) . Reported IC50?
Outgoing: 19 µM

Incoming: Entry under review: `NS(=O)(=O)c1ccc(-c2ccc(Cn3cc(O)c(=O)c(C(=O)O)c3)cc2)cc1` . Reported IC50?
Outgoing: 1.2 µM

Incoming: Entry under review: CC(c1ccc(F)cc1)n1cc(O)c(=O)c(C(=O)O)c1 (centres undefined) . Reported IC50?
Outgoing: > 25 µM

Incoming: Entry under review: `O=C(O)c1cn(Cc2ccc(F)cc2F)cc(O)c1=O` . Reported IC50?
Outgoing: > 25 µM

Incoming: Entry under review: `O=C(O)c1cn(Cc2ccc(F)cc2)cc(O)c1=O` . Reported IC50?
Outgoing: > 25 µM

----------
Test system: Human immunodeficiency virus 1
assay_procedure: Inhibition of HIV-1 RT-RNase H domain expressed in Escherichia coli JM109 at 30 uM using HTS-1 as substrate preincubated with compound/substrate for 10 mins followed by MgCl2 addition incubated for 10 mins by fluorescence-based assay
A collection of compounds and their measured inhibition
Please state the figure in %; there is no need to write the unit.

Sample answers from the record:
                           molecular_string  result
0  NS(=O)(=O)c1ccc(-c2ccc(Cn3cc(O)c(=O)c(C(=O)O)c3)cc2)cc1      68
1      O=C(O)c1cn(Cc2cccc3ccccc23)cc(O)c1=O      35
2  O=C(O)c1cn(Cc2ccc(-c3cnc4ccccc4c3)cc2)cc(O)c1=O      66

Incoming: Entry under review: `COc1ccc(Cn2cc(O)c(=O)c(C(=O)O)c2)cc1` . Reported inhibition?
Outgoing: 27

Incoming: Entry under review: `O=C(O)c1cn(CC2(c3ccccc3)CCCC2)cc(O)c1=O` . Reported inhibition?
Outgoing: 38

Incoming: Entry under review: `O=C(O)c1cn(Cc2ccc(-c3ccccc3)cc2)cc(O)c1=O` . Reported inhibition?
Outgoing: 37

----------
Tested on: Human immunodeficiency virus 1
assay_procedure: Inhibition of HIV-1 RT-RNase H domain expressed in Escherichia coli JM109 at 30 uM using HTS-1 as substrate preincubated with substrate for 10 mins followed by compound/MgCl2 addition incubated for 2 mins by fluorescence-based assay
Decision: inhibition >= 60% yields criterion met, all other cases yield criterion not met.

Past entries and their recorded results:
In [3]: df
Out[3]:
                           molecular_string     classification
0  NS(=O)(=O)c1ccc(-c2ccc(Cn3cc(O)c(=O)c(C(=O)O)c3)cc2)cc1      criterion met
1      COc1ccc(Cn2cc(O)c(=O)c(C(=O)O)c2)cc1  criterion not met
2   O=C(O)c1cn(CC2(c3ccccc3)CCCC2)cc(O)c1=O  criterion not met

Let us examine a further case.
Incoming: Hi, just wondering whether `O=C(O)c1cn(Cc2ccc(-c3cnc4ccccc4c3)cc2)cc(O)c1=O` shows inhibition of 60% or higher.
Outgoing: criterion met

----------
Tested on: Human immunodeficiency virus 1
assay_procedure: Inhibition of HIV-1 RT-RNase H domain expressed in Escherichia coli JM109 at 30 uM using HTS-1 as substrate preincubated for 10 mins followed by substrate/MgCl2 addition incubated for 2 mins by fluorescence-based assay
experimental_readout: inhibition

Sample answers from the record:
                           molecular_string  experimental_readout  result
0  O=C(O)c1cn(Cc2ccc(-c3ccccc3)cc2)cc(O)c1=O            inhibition     78%
1  O=C(O)c1cn(Cc2ccc(-c3cnc4ccccc4c3)cc2)cc(O)c1=O            inhibition     91%
2      O=C(O)c1cn(Cc2cccc3ccccc23)cc(O)c1=O            inhibition     82%

Incoming: Give inhibition (Human immunodeficiency virus 1) of the following molecule: `O=C(O)c1cn(CC2(c3ccccc3)CCCC2)cc(O)c1=O`
Outgoing: 42%

Incoming: Give inhibition (Human immunodeficiency virus 1) of the following molecule: `COc1ccc(Cn2cc(O)c(=O)c(C(=O)O)c2)cc1`
Outgoing: 70%

Incoming: Give inhibition (Human immunodeficiency virus 1) of the following molecule: `NS(=O)(=O)c1ccc(-c2ccc(Cn3cc(O)c(=O)c(C(=O)O)c3)cc2)cc1`
Outgoing: 92%
